This listing pairs compounds with measured IC50.
Biological target: Cytochrome P450 26A1 (Homo sapiens, UniProt O43174)
Sequence (O43174 whole entry): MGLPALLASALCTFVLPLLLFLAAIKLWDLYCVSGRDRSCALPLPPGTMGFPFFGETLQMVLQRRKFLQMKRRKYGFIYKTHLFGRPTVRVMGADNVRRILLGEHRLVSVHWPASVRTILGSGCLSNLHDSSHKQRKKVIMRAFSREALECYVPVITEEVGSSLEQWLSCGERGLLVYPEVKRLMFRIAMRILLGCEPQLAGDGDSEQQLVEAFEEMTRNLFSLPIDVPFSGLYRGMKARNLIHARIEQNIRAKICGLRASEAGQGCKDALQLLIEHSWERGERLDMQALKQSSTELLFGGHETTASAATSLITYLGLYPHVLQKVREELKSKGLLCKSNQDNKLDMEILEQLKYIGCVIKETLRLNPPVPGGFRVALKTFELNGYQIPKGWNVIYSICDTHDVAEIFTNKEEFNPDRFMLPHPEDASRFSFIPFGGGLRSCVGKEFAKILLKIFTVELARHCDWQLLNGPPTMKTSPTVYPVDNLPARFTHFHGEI
Give just the number in µM; leave the unit off.

Answered examples (3):
CC1(C)CCC(C)(C)c2cc(C3(c4ccc(C(=O)O)cc4)SCCS3)ccc21: 1.3
CC1(C)CCC(C)(C)c2cc(/C(COc3ccc(C(=O)O)cc3)=N/O)ccc21: 3.5
CC1(C)CCC(C)(C)c2cc(C(O)COc3ccc(C(=O)O)cc3)ccc21 (stereo unspecified): 2.8

Now let's try a different one.
Query: IC50; subject: CC1(C)CCC(C)(C)c2cc(C(=O)c3ccc(/C=C/C(=O)O)cc3)ccc21
Response: 4.7

###

Target: CYP3A4 (Homo sapiens, UniProt P08684)
Sequence (P08684 whole entry): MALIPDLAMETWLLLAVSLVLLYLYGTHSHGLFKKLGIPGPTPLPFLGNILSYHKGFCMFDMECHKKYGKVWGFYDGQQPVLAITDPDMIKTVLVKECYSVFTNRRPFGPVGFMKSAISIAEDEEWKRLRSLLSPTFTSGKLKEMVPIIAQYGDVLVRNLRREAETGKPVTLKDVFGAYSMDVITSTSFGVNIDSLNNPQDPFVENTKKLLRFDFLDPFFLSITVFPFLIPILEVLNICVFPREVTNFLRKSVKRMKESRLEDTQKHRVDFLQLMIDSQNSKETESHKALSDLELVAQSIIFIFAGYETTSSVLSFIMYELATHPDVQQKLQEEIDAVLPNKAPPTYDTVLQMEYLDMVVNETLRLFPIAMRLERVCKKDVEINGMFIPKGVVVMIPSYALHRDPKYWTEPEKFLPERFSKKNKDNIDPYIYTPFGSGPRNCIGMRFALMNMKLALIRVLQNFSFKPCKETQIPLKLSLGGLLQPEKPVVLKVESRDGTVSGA
Assay: Inhibition of CYP3A4 in human liver microsomes upto 100 uM using midazolam as substrate by LC-MS/MS analysis in presence of NADPH
Assay type: ADME
Conditions: probe midazolam, read-out: Imax
readout: Emax

Query: Which Emax is listed for CC1(C)CCC(C)(C)c2cc(C3(c4ccc(CCC(=O)O)cc4)OCCO3)ccc21 ?
Response: 40%

###

Target: UniProtKB P08684
readout: IC50 (µM)
Express the result in µM but write the number alone.

Query: Given the entry CC1(C)CCC(C)(C)c2cc(C3(c4ccc(/C=C/C(=O)O)cc4)OCCO3)ccc21 , what IC50 was observed with UniProtKB P08684?
Response: 30

###

Target or system Cytochrome P450 26B1 (Homo sapiens): recorded IC50 listed per item.

Please review the following examples before continuing.
CC1(C)CCC(C)(C)c2cc(S(=O)(=O)c3cccc(CC(=O)O)c3)ccc21: > 5 µM
C=C(c1ccc(C(=O)O)cc1)c1cc2c(cc1C)C(C)(C)CCC2(C)C: 5.9 µM
CC1(C)CCC(C)(C)c2cc(C(=O)c3ccc(/C=C/C(=O)O)cc3)ccc21: > 5 µM

Let's switch to this compound now.
Query: Test system Cytochrome P450 26B1 (Homo sapiens); read-out IC50; what value for CC1(C)CCC(C)(C)c2cc(C(=O)c3ccc(CCC(=O)O)cc3)ccc21 ?
Response: > 5 µM

Attribution: ChEMBL document CHEMBL3784928
